measuredTarget: Melanocortin receptor 4 (Homo sapiens) (UniProt P32245)
Sequence (P32245 whole entry, looked up): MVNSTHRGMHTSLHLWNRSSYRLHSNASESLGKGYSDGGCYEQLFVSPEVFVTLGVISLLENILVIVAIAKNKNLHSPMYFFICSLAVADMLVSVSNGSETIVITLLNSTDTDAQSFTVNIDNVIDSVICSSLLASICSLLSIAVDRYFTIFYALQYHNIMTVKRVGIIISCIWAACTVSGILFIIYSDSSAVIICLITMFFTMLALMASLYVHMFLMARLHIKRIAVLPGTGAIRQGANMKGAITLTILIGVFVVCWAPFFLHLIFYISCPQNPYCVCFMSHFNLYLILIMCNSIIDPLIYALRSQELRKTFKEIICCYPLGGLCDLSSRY
experimentalProtocol: blockers of MC4R cAMP signaling – cell-based, TR-FRET, confirmation (AID 602195);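 further: 0% = agonist stimulated wells alone and 100% = agonist stimulated wells plus saturating reference antagonist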
measurementSetup: MC4R-expressing cells, MTII-stimulated cAMP, at 6.5 µM, active compounds read high
Out of some 1,600 compounds screened, about 430 (27%) were called active. These entries were drawn from the full list.
Label class 1 for high-side inhibition (at or above 10%) and class 0 for low-side inhibition (below it).

>>> classassignment("O=C1/C(=C\\c2ccc([N+](=O)[O-])cc2)CS(=O)(=O)C/C1=C/c1ccc([N+](=O)[O-])cc1")
"class 1"
>>> classassignment("CC(=O)Nc1ccc(Sc2ccccc2C(=O)N2CCCC2)cn1")
"class 0"
>>> classassignment("N#Cc1c(-c2cccs2)nc(SCC(=O)c2ccc(Br)cc2)[nH]c1=O")
"class 1"
>>> classassignment("COc1ccc(-n2nc(C(=O)Nc3cc(OC)c(OC)c(OC)c3)c3ccccc3c2=O)c(OC)c1")
"class 0"
>>> classassignment("COCCCNC(=O)/C(C#N)=C/c1c(N2CCCCCC2)nc2ccccn2c1=O")
"class 1"
>>> classassignment("O=C(NCC1CCN(Cc2ccccc2Cl)CC1)Nc1cccc(Cl)c1")
"class 0"
>>> classassignment("O=C(Nc1ccccc1Cl)/C(Cl)=C(\\Cl)S(=O)c1ccccc1 (stereo unspecified)")
"class 0"
>>> classassignment("O=S(=O)(NCc1ccco1)c1cnc(Cl)c(Cl)c1")
"class 1"
>>> classassignment("COc1ccc(CCNC(=O)c2cnc(Cl)c(Cl)c2)cc1")
"class 1"
>>> classassignment("Cc1cccc(OCC(O)Cn2c(N3CCCCC3)nc3c2c(=O)[nH]c(=O)n3C)c1 (stereo unspecified)")
"class 0"
>>> classassignment("COc1ccccc1N(CC(=O)N/N=C(\\C)c1ccccc1O)S(=O)(=O)c1ccc(C)cc1")
"class 1"
>>> classassignment("C=Cn1c(C(=O)O)ccc1-c1ccc(OC)cc1")
"class 0"
>>> classassignment("O=C(OCC(=O)N1CCCCCC1)c1cnc(Cl)c(Cl)c1")
"class 1"
>>> classassignment("COc1ccc(Cl)cc1-c1cc(C(=O)Nc2cc(OC)c(OC)c(OC)c2)[nH]n1")
"class 0"
>>> classassignment("COc1ccc(CCNC(=O)COC(=O)c2cnc(Cl)c(Cl)c2)cc1")
"class 1"
>>> classassignment("CC(C)(C)OC(=O)N1CCC(NC(=O)c2[nH]cnc2C(=O)N[C@@H](Cc2ccccc2)C(=O)OCc2ccccc2)CC1")
"class 1"
>>> classassignment("CCCC(C(=O)n1nc(C)cc1C)C(NS(=O)(=O)c1ccc(C)cc1)c1ccccc1 (stereo unspecified)")
"class 1"
>>> classassignment("CCN(CC(=O)NCCCN1CCOCC1)S(=O)(=O)c1cc(Cl)ccc1Cl")
"class 0"
>>> classassignment("COc1ccc(/C=N/OCC(=O)N(Cc2ccccc2)c2ccccc2C(=O)O)cc1")
"class 0"
>>> classassignment("COc1ccc2oc(N)c(C=O)c(=O)c2c1")
"class 0"
>>> classassignment("COC(=O)[C@H](Cc1ccccc1)NC(=O)[C@@H]1C[C@H]1[C@@H](NC(=O)OCc1ccccc1)c1ccccc1")
"class 1"

---

measuredTarget: Melanocortin receptor 4 (Homo sapiens) (UniProt P32245)
experimentalProtocol: blockers of MC4R cAMP signaling – cell-based, TR-FRET, confirmation (AID 602195);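 further: 0% = agonist stimulated wells alone and 100% = agonist stimulated wells plus saturating reference antagonist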
measurementSetup: MC4R-expressing cells, MTII-stimulated cAMP, at 6.5 µM, active compounds read high
Among all 1,600 compounds or so, about 430 (27%) were called active. A selection follows.
Consider the following compounds and their measured inhibition readings.
experimentalEndpoint: inhibition (%)

>>> reportedresult("Cc1ccc(S(=O)(=O)CCC(=O)OCC(=O)N(C)Cc2ccccc2)cc1")
7.91
>>> reportedresult("Cc1ccc(NC(=O)COC(=O)CNC(=O)c2ccc(Cl)cc2Cl)cc1S(=O)(=O)N1CCOCC1")
13.7
>>> reportedresult("O=C(Cn1nnc2ccccc2c1=O)Nc1cc(C(F)(F)F)ccc1N1CCOCC1")
-7.03
>>> reportedresult("O=C(Nc1nccs1)c1cc(S(=O)(=O)N2CCOCC2)c(Cl)cc1Cl")
38.2
>>> reportedresult("COC(=O)c1sc(-c2ccc(C(C)(C)C)cc2)cc1NC(=O)/C=C/C(=O)O")
-6.9
>>> reportedresult("CCOC(=O)c1c(-c2ccccc2)oc2cc(Br)c(O)c(C=O)c12")
68.6
>>> reportedresult("O=C(c1ccc2c(c1)N(Cc1ccc(F)cc1)C(=O)c1ccccc1S2(=O)=O)N1CCN(c2ccccn2)CC1")
-2.23
>>> reportedresult("Cc1ccc(NC(=O)c2c(NC(=O)CCC(=O)O)sc3c2CCCCC3)cc1")
1.41
>>> reportedresult("C#Cc1cc(N2CCN(C(=O)c3ccoc3)CC2)n2nc(-c3cccc(Cl)c3)cc2n1")
36.4
>>> reportedresult("O=C(NCCc1c[nH]c2ccccc12)c1cccc(Br)c1")
3.64
>>> reportedresult("CC(C)Oc1ccc(/C=C(\\NC(=O)/C=C/c2ccco2)C(=O)NCCc2nc3ccccc3[nH]2)cc1")
-6.84
>>> reportedresult("CC(NS(=O)(=O)c1ccc(Br)cc1)C(=O)NCC1CCCO1 (stereo not drawn)")
0.92
>>> reportedresult("Cc1c(CCC(=O)O)c(=O)oc2cc(OCc3ccc(Br)cc3)ccc12")
-0.06
>>> reportedresult("CN(CC(=O)NCCc1ccccn1)S(=O)(=O)c1ccc(Cl)cc1")
-19.7
>>> reportedresult("Cc1ccc(S(=O)(=O)N(C)CC(=O)OCC(=O)N2CC(=O)Nc3ccccc32)cc1")
16.8
>>> reportedresult("CCOC(=O)c1c(NC(=O)CCl)sc(C(=O)N(CC)CC)c1C")
44.7
>>> reportedresult("COc1ccc(C(C)C)cc1S(=O)(=O)Nc1ncn[nH]1")
5.25
>>> reportedresult("CN(C)C(CNC(=O)CCCOc1ccccc1)c1ccco1 (stereo not drawn)")
-4.52
>>> reportedresult("O=C(COC(=O)c1c2c(nc3ccccc13)CCCC2)c1ccc(Br)s1")
13.6
>>> reportedresult("Cc1c(Cl)cccc1NC(=O)[C@@]1(CC(=O)O)CC(/C=C/c2ccccc2)=NO1")
-4.9
>>> reportedresult("CC(=O)N1CCN(S(=O)(=O)c2c(F)cc(F)c(Cl)c2F)CC1")
45.1
>>> reportedresult("Cc1ccc(NC(=O)C(C)OC(=O)Cc2c[nH]c3ccccc23)cc1S(=O)(=O)N1CCOCC1 (stereo not drawn)")
5.56
>>> reportedresult("Cc1ccc(-c2nnc(CN3CCN(C)CC3)o2)cc1")
7.87

---

measuredTarget: Melanocortin receptor 4 (Homo sapiens) (UniProt P32245)
experimentalProtocol: blockers of MC4R cAMP signaling – cell-based, TR-FRET, confirmation (AID 602195);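 further: 0% = agonist stimulated wells alone and 100% = agonist stimulated wells plus saturating reference antagonist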
measurementSetup: MC4R-expressing cells, MTII-stimulated cAMP, at 6.5 µM
In all, about 1,600 compounds went through this assay and about 430 (27%) were called active. Cut-off read from the data, not from the text of the source: active = inhibition above about 29%; inactive = the rest. The list is a sample of the results.
Possible outcomes: active, inactive

>>> classassignment("CC1(C)C(c2cccs2)=[N+]([O-])C2(CCCCC2=O)N1O (stereo not given)")
"inactive"
>>> classassignment("CCOC(=O)C(C)n1cnc2sc(C)c(C)c2c1=O (stereo not given)")
"inactive"
>>> classassignment("O=C(Nc1nnc(Cc2ccc(Cl)cc2)s1)c1cccnc1")
"inactive"
>>> classassignment("CSc1nnc(NC(=O)c2nc(S(=O)(=O)Cc3ccc(C)cc3)ncc2Cl)s1")
"active"
>>> classassignment("Cc1ccc(C)c(S(=O)(=O)N2CCN(CC(=O)Nc3ccc([N+](=O)[O-])cc3)CC2)c1")
"inactive"
>>> classassignment("COc1ccc(Oc2c(Cl)cnn(-c3ccccc3)c2=O)cc1")
"active"
>>> classassignment("COc1cccc(OC)c1C(=O)Nc1c(C(=O)N2CCN(c3ccccn3)CC2)oc2ccccc12")
"inactive"
>>> classassignment("N#C/C=C1\\Sc2ccccc2C(=O)N1CC(=O)N1CCN(S(=O)(=O)c2ccccc2)CC1")
"inactive"
>>> classassignment("CCOC(=O)c1cc(C)nc(S(C)(=O)=O)c1C#N")
"active"
>>> classassignment("O=C(O)CCn1cc(/C=C/C(=O)c2ccc(Cl)cc2)c(-c2cccc(Br)c2)n1")
"inactive"
